// provenance: PubChem BioAssay (NCI)

Tested on: RPMI-8226 leukemia
Assay details: NCI tumour cell line growth inhibition, 48 h; in the data active = GI50 below about 0.43 µM; inactive = the rest
Possible outcomes: true (1) for active, false (0) for inactive

| Compound | Classification |
| --- | --- |
| OCCNc1nc(NCCO)nc(Nc2ccc(C3=NN(c4cc(Cl)cc(Cl)c4)C(c4ccc(Cl)cc4)C3)cc2)n1 (centres undefined) | false (0) |
| COc1ccc2c(c1)[nH]c(=O)c1c3cccnc3cn21 | true (1) |
| COc1nccc(-c2c(-c3ccc(F)cc3)ncn2C2CCC(O)CC2)n1 (centres undefined) | false (0) |
| CCCCCCN1C(=O)/C(=c2\sc3n(c2=O)C2C(NN=3)N(CC)C(=O)N2CC)c2ccccc21 (centres undefined) | false (0) |
| CC(=O)OCC(OC(C)=O)C(OC(C)=O)C(/C=N/N(C(C)=O)S(=O)(=O)c1ccc(/C=C2\NC(=O)NC2=O)cc1)OC(C)=O (centres undefined) | false (0) |
| COc1ccc(/C=C/C(=O)c2ccc(Nc3ncnc4ccccc34)cc2)cc1OC | true (1) |
| Cn1c2ccccc2c2c(=O)n(CCCC(=O)NCC(=O)OC(=NC3CCCCC3)NC3CCCCC3)c3c(-c4ccccc4)nnn3c21 | false (0) |
| O=C(Nc1ccccc1Cl)c1cnc2ccc(C3CCNCC3)cn12 | false (0) |
| S=C(Nc1ccccc1)c1ccccn1 | false (0) |
